Hey, just so you know, these numbers are from patent US20140221611A1.

# study_target: REFACTO® factor VIII-like polypeptide (amino acids 1-743 and 1638 through 2332 of human factor VIII) (human) (UniProt P00451)
# Sequence (P00451 20-762, chain 1 of 2): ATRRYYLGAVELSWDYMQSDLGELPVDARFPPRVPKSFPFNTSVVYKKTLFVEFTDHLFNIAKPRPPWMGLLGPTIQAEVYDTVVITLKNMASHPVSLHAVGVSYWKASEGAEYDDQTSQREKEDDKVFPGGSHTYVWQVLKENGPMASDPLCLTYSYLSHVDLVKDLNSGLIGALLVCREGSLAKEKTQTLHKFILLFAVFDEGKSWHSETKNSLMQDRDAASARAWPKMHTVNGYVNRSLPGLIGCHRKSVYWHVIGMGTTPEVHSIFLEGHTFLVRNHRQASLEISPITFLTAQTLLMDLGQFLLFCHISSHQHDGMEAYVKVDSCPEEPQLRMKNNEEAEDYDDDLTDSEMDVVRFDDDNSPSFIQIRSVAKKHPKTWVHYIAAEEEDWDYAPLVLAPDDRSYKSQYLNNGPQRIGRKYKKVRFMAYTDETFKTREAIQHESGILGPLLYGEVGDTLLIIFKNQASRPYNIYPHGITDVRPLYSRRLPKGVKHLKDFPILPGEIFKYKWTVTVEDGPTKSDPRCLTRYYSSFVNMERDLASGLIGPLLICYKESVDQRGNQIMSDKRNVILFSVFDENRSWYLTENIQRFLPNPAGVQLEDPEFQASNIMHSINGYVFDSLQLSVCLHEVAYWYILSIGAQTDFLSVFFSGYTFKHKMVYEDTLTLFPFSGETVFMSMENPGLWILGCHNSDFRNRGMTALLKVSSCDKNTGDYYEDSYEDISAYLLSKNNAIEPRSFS
# Sequence (P00451 1657-2351, chain 2 of 2): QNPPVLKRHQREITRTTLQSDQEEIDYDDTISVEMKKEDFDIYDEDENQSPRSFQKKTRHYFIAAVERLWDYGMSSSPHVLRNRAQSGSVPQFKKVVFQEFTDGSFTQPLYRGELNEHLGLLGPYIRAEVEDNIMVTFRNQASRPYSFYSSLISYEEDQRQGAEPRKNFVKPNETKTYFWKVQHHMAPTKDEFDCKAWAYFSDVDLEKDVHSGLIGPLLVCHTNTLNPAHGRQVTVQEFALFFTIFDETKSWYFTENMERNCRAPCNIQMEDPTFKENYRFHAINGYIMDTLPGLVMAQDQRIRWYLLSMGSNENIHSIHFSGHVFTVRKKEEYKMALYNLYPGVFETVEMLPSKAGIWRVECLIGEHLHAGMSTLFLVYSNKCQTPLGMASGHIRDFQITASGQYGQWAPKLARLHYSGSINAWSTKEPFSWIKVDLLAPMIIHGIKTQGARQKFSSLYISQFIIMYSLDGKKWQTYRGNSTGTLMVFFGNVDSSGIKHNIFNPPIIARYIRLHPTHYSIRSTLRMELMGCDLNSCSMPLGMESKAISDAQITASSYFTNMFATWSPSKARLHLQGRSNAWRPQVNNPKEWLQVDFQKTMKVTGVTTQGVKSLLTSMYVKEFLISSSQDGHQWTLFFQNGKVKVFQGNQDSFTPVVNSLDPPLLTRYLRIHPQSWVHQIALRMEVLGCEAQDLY
# method_description: affinity column of immobilised peptide; fractions by factor VIII activity assay
Positions of bridges follow the written chain, without caps; N, C: chain ends. No end group written: not given here. *: point of attachment. NHNH2 = NN*
assay_metric: % recovery in Elution A (%)
Numbers only, in %.

Example entries begin here.
binder	unit_annotation	result
AEGTGDFHCIGVWFCLHDPGPEGGGS-NHNH2 (disulfide 9-15 (inferred)) [Affinity ligand CS-455]	%	1.3
AEGTGDHLCGAWFRPCDADPGPEGGGS-NHNH2 (disulfide 9-16 (inferred)) [Affinity ligand CS-454]	%	42.4
AEGTGDHPCGSWLRPCLHDPGPEGGGS-NHNH2 (disulfide 9-16 (inferred)) [Affinity ligand CS-453]	%	26.4
AEGTGDFCWVFAFDHCHDPGPEGGGS-NHNH2 (disulfide 8-16 (inferred)) [Affinity ligand CS-458]	%	55.6
AEGTGDFCWVFPFHHCFDPGPEGGGS-NHNH2 (disulfide 8-16 (inferred)) [Affinity ligand CS-460]	%	0

Batch request: % recovery in Elution A per item, same order as input.
1. AEGTGDFCWVFPFQHCADPGPEGGGS-NHNH2 (disulfide 8-16 (inferred)) [Affinity ligand CS-459]
2. AEGTGDFGCSWLFPCPFDPGPEGGGS-NHNH2 (disulfide 9-15 (inferred)) [Affinity ligand CS-456]

Reply |
[31.2, 43]
